assay details: recombinant barcode read abundance after kanamycin selection (control-corrected) (log10(CPM+1)); higher = more efficient recombination; sequences stand for … in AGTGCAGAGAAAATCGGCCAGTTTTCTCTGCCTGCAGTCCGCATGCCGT…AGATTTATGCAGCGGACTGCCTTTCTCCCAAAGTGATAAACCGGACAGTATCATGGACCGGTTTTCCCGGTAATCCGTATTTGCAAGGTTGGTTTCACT; site = the 11-nt target
If the reported recombinant barcode read abundance (log10) equals or exceeds 0.2, assign YES. If not, assign NO.

Examples with answers:
CTCGTCACTTGGGTTCTAACCTGTTGCCT (site CTCGTAACTAG) :: NO
AGGGAGACTTGGGTTCTAACCTGTTGCTT (site AGGGATACTAA) :: YES
TAGTTAGCTTGGGTTCTAACCTGTTGCCA (site TAGTTAGCTAG) :: NO

Inquiry: In plain terms: is recorded recombinant barcode read abundance (log10) at least 0.2 for GGAGGACCTTGGGTTCTAACCTGTTGCTT (site GGAAGACCTTA) ?
Reply text: NO

Inquiry: In plain terms: is recorded recombinant barcode read abundance (log10) at least 0.2 for AGCATTGCTTGGGTTCTAACCTGTTGCCT (site AGCGTTGCTAG) ?
Reply text: YES

Inquiry: In plain terms: is recorded recombinant barcode read abundance (log10) at least 0.2 for GGGTACCCTTGGGTTCTAACCTGTTGCCT (site GTGTACCCTAG) ?
Reply text: NO

Inquiry: In plain terms: is recorded recombinant barcode read abundance (log10) at least 0.2 for CTAAGGTCTTGGGTTCTAACCTGTTGCAT (site CTAAGGTCTAC) ?
Reply text: NO

Inquiry: In plain terms: is recorded recombinant barcode read abundance (log10) at least 0.2 for GGTCGTGCTTGGGTTCTAACCTGTTGCCT (site GGTCGGGCTAG) ?
Reply text: NO

Inquiry: In plain terms: is recorded recombinant barcode read abundance (log10) at least 0.2 for GCAATGTCTTGGGTTCTAACCTGTTGCCT (site GCAATGTCTAG) ?
Reply text: YES

Inquiry: In plain terms: is recorded recombinant barcode read abundance (log10) at least 0.2 for CATTCGCCTTGGGTTCTAACCTGTTGCGT (site TGGCTAGCTGT) ?
Reply text: NO

Inquiry: In plain terms: is recorded recombinant barcode read abundance (log10) at least 0.2 for TCCGACACTTGGGTTCTAACCTGTTGCCT (site TACGACACTAG) ?
Reply text: YES

====

assay details: recombinant barcode read abundance after kanamycin selection (control-corrected) (log10(CPM+1)); higher = more efficient recombination; sequences stand for … in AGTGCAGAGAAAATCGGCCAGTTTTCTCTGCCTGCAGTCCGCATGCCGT…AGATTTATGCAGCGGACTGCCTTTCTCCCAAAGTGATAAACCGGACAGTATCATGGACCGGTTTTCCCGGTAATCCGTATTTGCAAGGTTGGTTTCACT; site = the 11-nt target
Label scheme for recombinant barcode read abundance (log10): lowest (below 0.1), middle (0.1 to below 0.6), highest (0.6 or more)

Examples with answers:
ACACTCCCTTGGGTTCTAACCTGTTGCTG (site ACACACTCTCA) :: middle
TCTGAGGCTTGGGTTCTAACCTGTTGCTG (site TCCGAGGCTCA) :: middle
GACTCTCCTTGGGTTCTAACCTGTTGCTT (site GACTCTCCTAT) :: middle

Inquiry: Which recombinant barcode read abundance (log10) category applies to GATCGATCTTGGGTTCTAACCTGTTGCAT (site GATCGATCTAC) here?
Reply text: middle

Inquiry: Which recombinant barcode read abundance (log10) category applies to TATCCGACTTGGGTTCTAACCTGTTGCCC (site TATCCGACTGG) here?
Reply text: highest

Inquiry: Which recombinant barcode read abundance (log10) category applies to CTAAATCCTTGGGTTCTAACCTGTTGCAT (site CTAAATCCTAT) here?
Reply text: highest

Inquiry: Which recombinant barcode read abundance (log10) category applies to ATTCGAGCTTGGGTTCTAACCTGTTGCGC (site ATTCGAGCTGC) here?
Reply text: highest

Inquiry: Which recombinant barcode read abundance (log10) category applies to AATACCTCTTGGGTTCTAACCTGTTGCCT (site AGTACCTCTAG) here?
Reply text: lowest

Inquiry: Which recombinant barcode read abundance (log10) category applies to ACTGGGCCTTGGGTTCTAACCTGTTGCGA (site ACTGGGCCTTC) here?
Reply text: highest

Inquiry: Which recombinant barcode read abundance (log10) category applies to ACGACTCCTTGGGTTCTAACCTGTTGCCT (site ACGACTTCTAG) here?
Reply text: lowest

Inquiry: Which recombinant barcode read abundance (log10) category applies to CAAGGGCCTTGGGTTCTAACCTGTTGCCT (site CAAAGGCCTAG) here?
Reply text: middle

Inquiry: Which recombinant barcode read abundance (log10) category applies to ACTAACCCTTGGGTTCTAACCTGTTGCCT (site ATTAACCCTAG) here?
Reply text: lowest

Inquiry: Which recombinant barcode read abundance (log10) category applies to TCCGAGCCTTGGGTTCTAACCTGTTGCGT (site TCCGAGCCTAC) here?
Reply text: highest

Inquiry: Which recombinant barcode read abundance (log10) category applies to GGATTCCCTTGGGTTCTAACCTGTTGCCA (site GGATTCCCTTG) here?
Reply text: highest

Inquiry: Which recombinant barcode read abundance (log10) category applies to TCCCAGTCTTGGGTTCTAACCTGTTGCGT (site TCCCAGTCTAG) here?
Reply text: middle

Inquiry: Which recombinant barcode read abundance (log10) category applies to TGTAATACTTGGGTTCTAACCTGTTGCCT (site TGTAATGCTAG) here?
Reply text: middle

Inquiry: Which recombinant barcode read abundance (log10) category applies to CTCCTCTCTTGGGTTCTAACCTGTTGCAT (site AAGTGAGCTTG) here?
Reply text: lowest

Inquiry: Which recombinant barcode read abundance (log10) category applies to AGGTGCCCTTGGGTTCTAACCTGTTGCCG (site AAGTGCTCTCG) here?
Reply text: middle

====

assay details: recombinant UMI read abundance after kanamycin selection (control-corrected) (log10(CPM+1)); higher = more efficient recombination; extreme values may be limits of the assay; sequences stand for … in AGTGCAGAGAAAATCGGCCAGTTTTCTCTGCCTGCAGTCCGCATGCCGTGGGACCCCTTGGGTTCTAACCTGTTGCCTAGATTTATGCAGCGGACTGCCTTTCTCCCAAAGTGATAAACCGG…AGGTTGGTTTCACT; site = the 11-nt donor
assay readout: recombinant UMI read abundance (log10)

CATGCAGCATGGACCGGTTTTCCCGGTAATCCGTATTTGCT (site CAAGCAGCTAG) :: 0.856

Inquiry: Return reported recombinant UMI read abundance (log10). Input sequence: CACTTCCCATGGACCGGTTTTCCCGGTAATCCGTATTTGCT (site CAATTCCCTAG)
Reply text: 0

====

assay details: recombinant UMI read abundance after kanamycin selection (control-corrected) (log10(CPM+1)); higher = more efficient recombination; extreme values may be limits of the assay; sequences stand for … in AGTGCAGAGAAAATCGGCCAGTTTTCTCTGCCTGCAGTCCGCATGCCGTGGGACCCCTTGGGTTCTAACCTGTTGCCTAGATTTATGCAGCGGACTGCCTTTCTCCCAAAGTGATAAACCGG…AGGTTGGTTTCACT; site = the 11-nt donor
If the reported recombinant UMI read abundance (log10) equals or exceeds 0.007, assign label 1. If not, assign label 0.

Examples with answers:
CTCAACACATGGACCGGTTTTCCCGGTAATCCGTATTTGCT (site CTCCACACTAG) :: label 1
CGGAATGCATGGACCGGTTTTCCCGGTAATCCGTATTTGTG (site CGGAATCCTAA) :: label 0
AGGTCAGCATGGACCGGTTTTCCCGGTAATCCGTATTTGGG (site AGGTCAGCTCC) :: label 0
GGTATGTCATGGACCGGTTTTCCCGGTAATCCGTATTTGTT (site GGTAAGTCTAA) :: label 0
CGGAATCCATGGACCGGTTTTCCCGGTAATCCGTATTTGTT (site CGGAATGCTAA) :: label 0
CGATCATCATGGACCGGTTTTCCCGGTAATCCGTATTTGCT (site CGAACGTCTAG) :: label 0
ACGACTACATGGACCGGTTTTCCCGGTAATCCGTATTTGAC (site AGGACTACTGT) :: label 1
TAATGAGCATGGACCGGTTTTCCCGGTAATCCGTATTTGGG (site TAATTAGCTCC) :: label 0

Now let's try a different one.
Inquiry: In plain terms: is recorded recombinant UMI read abundance (log10) at least 0.007 for GAGCTCGCATGGACCGGTTTTCCCGGTAATCCGTATTTGAT (site GAGCTCGCTAT) ?
Reply text: label 1

====

assay details: recombinant barcode read abundance after kanamycin selection (control-corrected) (log10(CPM+1)); higher = more efficient recombination; sequences stand for … in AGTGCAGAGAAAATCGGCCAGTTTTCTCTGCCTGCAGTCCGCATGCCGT…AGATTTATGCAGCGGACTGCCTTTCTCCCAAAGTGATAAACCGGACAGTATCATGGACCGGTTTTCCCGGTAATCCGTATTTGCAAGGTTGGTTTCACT; site = the 11-nt target
If the reported recombinant barcode read abundance (log10) equals or exceeds 0.4, assign Condition met. If not, assign Condition not met.

Examples with answers:
GGCTATGCTTGGGTTCTAACCTGTTGCCT (site GGCTATGCTAG) :: Condition not met
CTCTAGACTTGGGTTCTAACCTGTTGCCT (site CTCTAGACTAG) :: Condition not met
GATCACCCTTGGGTTCTAACCTGTTGCAT (site CGAGTGTCTTA) :: Condition not met
GGGGCCTCTTGGGTTCTAACCTGTTGCTG (site GGGGCCTCTCA) :: Condition met
GGAAGGCCTTGGGTTCTAACCTGTTGCTT (site TTGGTCACTTG) :: Condition not met

Inquiry: In plain terms: is recorded recombinant barcode read abundance (log10) at least 0.4 for CTATGTGCTTGGGTTCTAACCTGTTGCTT (site CTATGTGCTAA) ?
Reply text: Condition not met

Inquiry: In plain terms: is recorded recombinant barcode read abundance (log10) at least 0.4 for CGCTGTCCTTGGGTTCTAACCTGTTGCTT (site CGCTGCCCTAA) ?
Reply text: Condition not met

Measured values drawn from the supplement of paper PMC11208160 for this set.
